- System Name: PARP-1 enzyme (Homo sapiens (Human), UniProt P09874)
- Sequence (P09874 whole entry): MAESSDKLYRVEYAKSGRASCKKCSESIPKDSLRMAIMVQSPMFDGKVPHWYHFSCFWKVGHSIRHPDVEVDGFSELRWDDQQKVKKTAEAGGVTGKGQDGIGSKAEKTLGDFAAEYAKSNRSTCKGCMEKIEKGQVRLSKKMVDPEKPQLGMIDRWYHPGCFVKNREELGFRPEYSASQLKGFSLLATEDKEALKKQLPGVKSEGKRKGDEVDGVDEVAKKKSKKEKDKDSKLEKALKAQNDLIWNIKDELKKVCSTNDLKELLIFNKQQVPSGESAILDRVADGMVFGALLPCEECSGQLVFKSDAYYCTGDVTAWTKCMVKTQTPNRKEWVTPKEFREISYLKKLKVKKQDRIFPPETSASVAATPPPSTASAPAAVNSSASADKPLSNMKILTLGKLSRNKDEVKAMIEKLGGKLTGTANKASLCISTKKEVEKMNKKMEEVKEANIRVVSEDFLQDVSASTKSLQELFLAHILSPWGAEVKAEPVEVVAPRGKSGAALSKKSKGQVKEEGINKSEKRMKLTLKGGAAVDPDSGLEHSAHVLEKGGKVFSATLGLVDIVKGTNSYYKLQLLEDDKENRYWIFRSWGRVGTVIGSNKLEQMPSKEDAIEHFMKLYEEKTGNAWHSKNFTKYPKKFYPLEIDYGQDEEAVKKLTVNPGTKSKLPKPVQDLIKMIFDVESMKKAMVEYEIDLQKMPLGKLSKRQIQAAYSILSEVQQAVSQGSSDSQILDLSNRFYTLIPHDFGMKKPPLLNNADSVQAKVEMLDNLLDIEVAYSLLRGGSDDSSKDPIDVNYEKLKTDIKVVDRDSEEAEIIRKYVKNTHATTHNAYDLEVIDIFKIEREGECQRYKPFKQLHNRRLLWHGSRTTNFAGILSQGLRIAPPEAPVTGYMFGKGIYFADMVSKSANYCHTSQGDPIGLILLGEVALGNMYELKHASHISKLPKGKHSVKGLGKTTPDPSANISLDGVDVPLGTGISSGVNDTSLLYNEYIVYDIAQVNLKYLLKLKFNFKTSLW
- Experiment Summary: PARP enzyme activity assay (HT Universal Chemiluminescent PARP Assay Kit, histone-coated wells)
- Assay type: biochemical
- Conditions Used: read-out: Inhibition (%) at 30 nM
Quantity Name: inhibition at 0.03 µM (%)
The reply should be a number in %, with the unit left off.

CCNc1cccnc1N1CCN(c2nc3c(C(N)=O)cccc3[nH]2)CC1: 8
CNC(=O)c1ccc(N2CCN(c3nc4c(C(N)=O)cc(F)cc4[nH]3)CC2)nc1: 45
CCNC(=O)c1ncc(N2CCN(c3nc4c(C(N)=O)cc(F)cc4[nH]3)CC2)cn1: 77
COc1cnc(N2CCN(c3nc4c(C(N)=O)cccc4[nH]3)CC2)nc1: 32
NC(=O)c1cccc2[nH]c(N3CCN(c4ncc(N)cn4)CC3)nc12: 26
CNC(=O)c1cnc(N2CCN(c3nc4c(C(N)=O)cc(F)cc4[nH]3)CC2)cn1: 79
CN(C)C(=O)c1ccc(N2CCN(c3nc4c(C(N)=O)cccc4[nH]3)CC2)nc1: 44

Consider the record given below.
Fill in the recorded inhibition at 0.03 µM for this compound, with PARP-1 enzyme (Homo sapiens (Human), UniProt P09874) as test system: `NC(=O)c1cc(F)cc2[nH]c(N3CCN(c4ccc(C(F)(F)F)cn4)CC3)nc12` 32

* * *

- System Name: UniProt:P09874
- Experiment Summary: PARP enzyme activity assay (HT Universal Chemiluminescent PARP Assay Kit, histone-coated wells)
- Type: biochemical
- Conditions Used: read-out: Inhibition (%) at 100 nM
Hi all, reminder that labels come from inhibition at 0.1 µM, split as bin A = under 70%, bin B = from 70% up to 90%, bin C = 90% and over

Look over these answered cases.
CN(C)C(=O)c1ccc(N2CCN(c3nc4c(C(N)=O)cc(F)cc4[nH]3)CC2)nc1: bin B
NC(=O)c1cccc2[nH]c(N3CCN(c4ccncn4)CC3)nc12: bin B
N#Cc1cnc(N2CCN(c3nc4c(C(N)=O)cccc4[nH]3)CC2)nc1: bin B

Please report the category associated with `CCNC(=O)c1cnc(N2CCN(c3nc4c(C(N)=O)cc(F)cc4[nH]3)CC2)cn1` , nothing else. bin C

Which class does `CCNC(=O)c1ncc(N2CCN(c3nc4c(C(N)=O)cc(F)cc4[nH]3)CC2)cn1` fall in? bin C

Hello team, could you let me know which band the following compound falls into: `NC(=O)c1cccc2[nH]c(N3CCN(c4ncc(N)cn4)CC3)nc12` bin A

Which of the defined bands does the recorded inhibition at 0.1 µM of `CCNc1cccnc1N1CCN(c2nc3c(C(N)=O)cccc3[nH]2)CC1` sit within? bin A

The entry to classify is `CNC(=O)c1ccc(N2CCN(c3nc4c(C(N)=O)cccc4[nH]3)CC2)nc1` ; which class holds it? bin B

Given `N#Cc1cnc(N2CCN(c3nc4c(C(N)=O)cc(F)cc4[nH]3)CC2)cn1` , name the class its inhibition at 0.1 µM places it in. bin C

Lab note: sort `NC(=O)c1cccc2[nH]c(N3CCN(c4ncccn4)CC3)nc12` into the matching inhibition at 0.1 µM band. bin B

Hi, small favor: classify `CC(C)(C)NC(=O)c1cnc(N2CCN(c3nc4c(C(N)=O)cc(F)cc4[nH]3)CC2)cn1` by its inhibition at 0.1 µM when you get a moment. bin B

Band for the recorded inhibition at 0.1 µM of `NC(=O)c1cc(F)cc2[nH]c(N3CCN(c4ccc(C(F)(F)F)cn4)CC3)nc12` ? bin A

Kindly identify the class of `CCNc1cnc(N2CCN(c3nc4c(C(N)=O)cccc4[nH]3)CC2)nc1` . bin A

Please let me know in which category the item `CC(=O)Nc1cnc(N2CCN(c3nc4c(C(N)=O)cccc4[nH]3)CC2)nc1` belongs. bin A

# classify by inhibition at 0.1 µM band: `NC(=O)c1cc(F)cc2[nH]c(N3CCN(c4ccc(C(F)(F)F)nn4)CC3)nc12` bin C

Pick a category. Item: `NC(=O)c1cc(F)cc2[nH]c(N3CCN(c4cnc(C(F)(F)F)nc4)CC3)nc12` bin C

Band of `CNC(=O)c1cccnc1N1CCN(c2nc3c(C(N)=O)cc(F)cc3[nH]2)CC1` ? bin A

* * *

- System Name: PARP-1 enzyme (Homo sapiens (Human))
- Experiment Summary: PARP enzyme activity assay (HT Universal Chemiluminescent PARP Assay Kit, histone-coated wells)
- Assay type: biochemical
- Conditions Used: read-out: Inhibition (%) at 30 nM
inhibition at 0.03 µM of 60% or higher: Criterion met. Under 60%: Criterion not met.

CNC(=O)c1ncc(N2CCN(c3nc4c(C(N)=O)cc(F)cc4[nH]3)CC2)cn1: Criterion met
N#Cc1cnc(N2CCN(c3nc4c(C(N)=O)cc(F)cc4[nH]3)CC2)cn1: Criterion met
CCNC(=O)c1cnc(N2CCN(c3nc4c(C(N)=O)cc(F)cc4[nH]3)CC2)cn1: Criterion met
NC(=O)c1cc(F)cc2[nH]c(N3CCN(c4cnc(C(=O)N5CCOCC5)cn4)CC3)nc12: Criterion met
NC(=O)c1ccc(N2CCN(c3nc4c(C(N)=O)cccc4[nH]3)CC2)nc1: Criterion not met
CCNc1cnc(N2CCN(c3nc4c(C(N)=O)cccc4[nH]3)CC2)nc1: Criterion not met

Please indicate if the recorded inhibition at 0.03 µM for `CNC(=O)c1cccnc1N1CCN(c2nc3c(C(N)=O)cc(F)cc3[nH]2)CC1` meets or exceeds 60%. Criterion not met

* * *

- System Name: PARP-1 enzyme (Homo sapiens (Human), UniProt P09874)
- Experiment Summary: PARP enzyme activity assay (HT Universal Chemiluminescent PARP Assay Kit, histone-coated wells)
- Type: biochemical
- Conditions Used: read-out: Inhibition (%) at 100 nM
Quantity Name: inhibition at 0.1 µM (%)
The reply should be a number in %, with the unit left off.

These solved cases illustrate the format of a correct answer.
NC(=O)c1cc(F)cc2[nH]c(N3CCN(c4ncc(C(F)(F)F)cn4)CC3)nc12 [Compound (34)]: 60
NC(=O)c1cc(F)cc2[nH]c(N3CCN(c4ccc(C(F)(F)F)nc4)CC3)nc12 [Compound (32)]: 84
COc1cnc(N2CCN(c3nc4c(C(N)=O)cccc4[nH]3)CC2)nc1 [Compound (5)]: 60
NC(=O)c1cc(F)cc2[nH]c(N3CCN(c4ncc(F)cn4)CC3)nc12 [Compound (17)]: 78
N#Cc1cnc(N2CCN(c3nc4c(C(N)=O)cc(F)cc4[nH]3)CC2)nc1 [Compound (19)]: 93

Return reported inhibition at 0.1 µM; argument: NC(=O)c1cccc2[nH]c(N3CCN(c4nccc(C(F)(F)F)n4)CC3)nc12 [Compound (9)] 31

Entry under review: CNC(=O)c1ccc(N2CCN(c3nc4c(C(N)=O)cc(F)cc4[nH]3)CC2)nc1 [Compound (24)] . Reported inhibition at 0.1 µM? 65

Any idea what inhibition at 0.1 µM was measured for CN(C)C(=O)c1ncc(N2CCN(c3nc4c(C(N)=O)cc(F)cc4[nH]3)CC2)cn1 [Compound (41)] ? 92

* * *

- System Name: PARP-1 enzyme (Homo sapiens (Human))
- Experiment Summary: PARP enzyme activity assay (HT Universal Chemiluminescent PARP Assay Kit, histone-coated wells)
- Assay type: biochemical
- Conditions Used: read-out: Inhibition (%) at 30 nM
Attribute: inhibition at 0.03 µM
Record the value in %, omitting the unit from your answer.

The examples below pair each entry with its known result.
NC(=O)c1cc(F)cc2[nH]c(N3CCN(c4ccncn4)CC3)nc12: 78
CNC(=O)c1ccc(N2CCN(c3nc4c(C(N)=O)cc(F)cc4[nH]3)CC2)nn1: 78
NC(=O)c1cc(F)cc2[nH]c(N3CCN(c4cnc(C(F)(F)F)cn4)CC3)nc12: 76

Entry under review: `NC(=O)c1cccc2[nH]c(N3CCN(c4nccc(C(F)(F)F)n4)CC3)nc12` . Reported inhibition at 0.03 µM? 16

# query: inhibition at 0.03 µM of entry `CNC(=O)c1ccc(N2CCN(c3nc4c(C(N)=O)cccc4[nH]3)CC2)nc1` 59

* * *

- System Name: PARP-1 enzyme (Homo sapiens (Human), UniProt P09874)
- Experiment Summary: PARP enzyme activity assay (HT Universal Chemiluminescent PARP Assay Kit, histone-coated wells)
- Format: biochemical
- Conditions Used: read-out: Inhibition (%) at 100 nM
# cutoff 90% applies to inhibition at 0.1 µM; >= gives met, < gives not met

Record excerpt, results attached:
CC(C)NC(=O)c1cnc(N2CCN(c3nc4c(C(N)=O)cc(F)cc4[nH]3)CC2)cn1: not met
NC(=O)c1cccc2[nH]c(N3CCN(c4cc(C(F)(F)F)ncn4)CC3)nc12: not met

# bool: inhibition at 0.1 µM of `NC(=O)c1ccc(N2CCN(c3nc4c(C(N)=O)cccc4[nH]3)CC2)nc1` >= 90% not met

Quick check, inhibition at 0.1 µM >= 90%? `CNC(=O)c1cnc(N2CCN(c3nc4c(C(N)=O)cc(F)cc4[nH]3)CC2)nc1` met

Please check the record `N#Cc1ncc(N2CCN(c3nc4c(C(N)=O)cc(F)cc4[nH]3)CC2)cn1` and state if its inhibition at 0.1 µM is at or above 90%. met
